experiment: Cytotoxicity in SH-SY5Y cell line (MTT); format: cell-based; conditions: human; SH-SY5Y, 10, 30 and 100 μM, 24 h, MTT; read-out: CC50
test.readout: CC50 at 24 h

Can you give me CC50 at 24 h for all of these, one by one?
1. O=C1CN(CCOC(=O)CCCC[C@@H]2CCSS2)[C@@H](c2ccccc2Cl)c2cc(Cl)ccc2N1 [(R,R)-7d]
2. O=C1CN(CCOC(=O)CCCC[C@@H]2CCSS2)C(c2ccccc2Cl)c2cc(Cl)ccc2N1 (mixture of isomers) [(rac,R)-3b]
3. O=C1CN(CCOC(=O)CCCC[C@H]2CCSS2)[C@@H](c2ccccc2Cl)c2cc(Cl)ccc2N1 [(S,R)-7b]
4. O=C1CN(CCOC(=O)CCCC[C@H]2CCSS2)[C@H](c2ccccc2Cl)c2cc(Cl)ccc2N1 [(S,S)-7a]
5. O=C1CN(CCOC(=O)CCCC[C@@H]2CCSS2)[C@H](c2ccccc2Cl)c2cc(Cl)ccc2N1 [(R,S)-7c]

Return:
["> 100 µM", "76.2 µM", "> 100 µM", "> 100 µM", "> 100 µM"]

Enquiry: Please give the measured CC50 at 24 h for this compound: O=C1CN(CCOC(=O)CCCCC2CCSS2)C(c2ccccc2Cl)c2cc(Cl)ccc2N1 (racemic)
Return: 97.1 µM

---

Please respond with reported % Protection for every item in the list.
tested on: SH-SY5Y neuroblastoma cells; test: Neuroprotection against okadaic acid hyperphosphorylation in SH-SY5Y cells (MTT); type: cell-based, human; conditions: compound 1 μM 24 h, then compound + OA 24 h; n.p = compound does not protect cells

Example entries begin here.
{"columns": ["molecule", "reported.measurement"],
 "data": [
  ["O=C1CN(CCO)C(c2ccccc2Cl)c2cc(Cl)ccc2N1 (racemic) [(±)-6, reference compound]", "33.4%"],
  ["O=C1CN(CCO)[C@@H](c2ccccc2Cl)c2cc(Cl)ccc2N1", "14.2%"],
  ["O=C1CN(CCOC(=O)CCCC[C@@H]2CCSS2)[C@@H](c2ccccc2Cl)c2cc(Cl)ccc2N1 [(R,R)-7d]", "21%"]
]}

Can you give me % Protection for all of these, one by one?
1. O=C1CN(CCOC(=O)CCCC[C@H]2CCSS2)[C@H](c2ccccc2Cl)c2cc(Cl)ccc2N1 [(S,S)-7a]
2. O=C1CN(CCO)[C@H](c2ccccc2Cl)c2cc(Cl)ccc2N1
3. COc1ccc2[nH]cc(CCNC(C)=O)c2c1 [Mel, Melatonin, reference compound]

Return:
1. 21.2%
2. 41.9%
3. 31.1%

---

assay: DPPH reduction assay, antioxidant capacity; settings: mean ± SEM of three experiments
Please respond with reported pIC50 for every item in the list.
Give bare numbers, as −log10 of the molar value.

Can you give me pIC50 for all of these, one by one?
1. O=C1O[C@H]([C@@H](O)CO)C(O)=C1O [Ascorbic acid, reference compound]
2. Cc1c(C)c2c(c(C)c1O)CCC(C)(C(=O)O)O2 (centres unmarked) [Trolox, reference compound]

Return:
1. 4.79
2. 4.94

---

test: Cytotoxicity in SH-SY5Y cell line (MTT); type: cell-based; conditions: human
test.readout: CC50 at 24 h

{"columns": ["given.smiles", "CC50 at 24 h"],
 "data": [
  ["O=C1CN(CCO)[C@@H](c2ccccc2Cl)c2cc(Cl)ccc2N1", "> 100 µM"]
]}

Enquiry: Please give the measured CC50 at 24 h for this molecule: "O=C1CN(CCO)[C@H](c2ccccc2Cl)c2cc(Cl)ccc2N1"
Return: > 100 µM

---

Tested on: BV2 microglial cells
Assay: Nitrite production reduction in LPS-stimulated BV2 microglial cells (Griess)
Type: cell-based, mouse
Conditions: 24 h pretreatment 0.3, 3, 10, 30 μM, then compound + LPS 100 ng/mL 18 h, Griess
Description: BV2 microglial cells were seeded at 2 × 10^4 cells/well and treated with compounds at increasing concentrations during 24 h in complete culture media. […] Thereafter, nitrite production was determined by using the modified Griess assay. […] Light absorption was measured at 550 nm in a microplate reader (SPECTROstar nano, BMG Labtech). […]
test.readout: IC50

Enquiry: Short answer please: IC50, BV2 microglial cells, entry O=C(O)CCCC[C@@H]1CCSS1 [(R) -Lipoic acid, (R)-Lipoic acid, reference compound]
Return: > 30 µM

Each recorded value in this set is attributed to paper PMC8772772.
